# Species: Homo sapiens
# Measurement setup: in vivo
# Description: Hepatic clearance in human
Field: class. Source value: CLH. Ranges: class A = under 2 mL/min/kg, class B = from 2 mL/min/kg up to 10 mL/min/kg, class C = 10 mL/min/kg and over

{"Molecule": "CC(C(=O)O)c1cccc(Oc2ccccc2)c1 (centres undefined)", "Assigned class": "class A"}
{"Molecule": "CN1CCN2c3ccccc3Cc3ccccc3C2C1 (centres undefined)", "Assigned class": "class C"}
{"Molecule": "CCCc1nn(C)c2c(=O)[nH]c(-c3cc(S(=O)(=O)N4CCN(C)CC4)ccc3OCC)nc12", "Assigned class": "class B"}
{"Molecule": "COCCc1ccc(OCC(O)CNC(C)C)cc1 (centres undefined)", "Assigned class": "class C"}
{"Molecule": "CC(C)(C)NC[C@H](O)COc1nsnc1N1CCOCC1", "Assigned class": "class C"}
{"Molecule": "CC(=O)C[C@@H](c1ccccc1)c1c(O)c2ccccc2oc1=O", "Assigned class": "class A"}
{"Molecule": "CN(C)CCCN1c2ccccc2Sc2ccccc21", "Assigned class": "class C"}
{"Molecule": "C[C@]12C=CC(=O)C=C1CC[C@@H]1[C@@H]2[C@@H](O)C[C@@]2(C)[C@H]1CC[C@]2(O)C(=O)CO", "Assigned class": "class B"}
{"Molecule": "COc1ccc(Cl)cc1C(=O)NCCc1ccc(S(=O)(=O)NC(=O)NC2CCCCC2)cc1 [GLYBURIDE]", "Assigned class": "class A"}
{"Molecule": "CN(C)CCCN1c2ccccc2Sc2ccc(Cl)cc21", "Assigned class": "class B"}
{"Molecule": "CC(C)NC[C@H](O)COc1cccc2ccccc12", "Assigned class": "class C"}
{"Molecule": "C[C@H]1C[C@@H]2[C@H]([C@@H](O)C[C@@]3(C)[C@H]2CC[C@]3(O)C(=O)CO)[C@@]2(C)C=CC(=O)C=C12", "Assigned class": "class B"}
{"Molecule": "CCC1=C(C)CN(C(=O)NCCc2ccc(S(=O)(=O)NC(=O)N[C@H]3CC[C@H](C)CC3)cc2)C1=O [GLIMEPIRIDE]", "Assigned class": "class A"}
